Experiment: physchem
Settings: water
Bridge positions count the residues as written; N and C are the ends.
quantity_measured: solubility

Q: Which value of solubility has been reported for H-RALLTAPRSLRRSSCFGHKIDRINHVSNLGCNSFRYRITAREDKQGWA-OH (disulfide 15-31) [CRRL 191] in the records?
A: ≥ 1000 µg/mL

---

Target: human GC-A (Homo sapiens, UniProt P16066)
Construct: host or cells: HEK293
Sequence (P16066 33-1061): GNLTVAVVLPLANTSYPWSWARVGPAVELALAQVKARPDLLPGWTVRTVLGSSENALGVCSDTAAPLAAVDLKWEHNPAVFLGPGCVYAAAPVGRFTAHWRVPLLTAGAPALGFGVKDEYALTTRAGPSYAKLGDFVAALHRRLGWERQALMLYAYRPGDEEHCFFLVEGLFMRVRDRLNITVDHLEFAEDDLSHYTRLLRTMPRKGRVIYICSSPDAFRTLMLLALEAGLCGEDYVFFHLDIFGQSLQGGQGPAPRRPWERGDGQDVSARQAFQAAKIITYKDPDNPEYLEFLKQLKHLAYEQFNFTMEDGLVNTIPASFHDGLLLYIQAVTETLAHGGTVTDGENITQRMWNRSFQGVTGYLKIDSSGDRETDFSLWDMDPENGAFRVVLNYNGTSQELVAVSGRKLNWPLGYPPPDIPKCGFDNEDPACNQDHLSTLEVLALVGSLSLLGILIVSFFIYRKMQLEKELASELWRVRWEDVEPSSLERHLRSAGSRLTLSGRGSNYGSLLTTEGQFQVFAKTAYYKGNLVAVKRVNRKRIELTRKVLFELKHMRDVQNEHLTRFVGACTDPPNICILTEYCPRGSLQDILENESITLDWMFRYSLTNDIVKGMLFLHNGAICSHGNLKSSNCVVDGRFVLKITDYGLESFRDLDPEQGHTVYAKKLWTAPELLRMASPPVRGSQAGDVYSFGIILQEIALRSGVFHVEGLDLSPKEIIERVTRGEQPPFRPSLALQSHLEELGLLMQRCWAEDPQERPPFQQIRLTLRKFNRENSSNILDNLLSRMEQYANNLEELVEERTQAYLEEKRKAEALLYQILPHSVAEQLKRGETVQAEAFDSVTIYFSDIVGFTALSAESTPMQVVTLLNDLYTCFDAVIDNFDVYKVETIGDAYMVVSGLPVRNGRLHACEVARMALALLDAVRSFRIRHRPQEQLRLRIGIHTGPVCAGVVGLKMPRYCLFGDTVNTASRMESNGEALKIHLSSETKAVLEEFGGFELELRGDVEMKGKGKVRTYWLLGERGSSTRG
Assay: cGMP production in HEK293 cells overexpressing GC-A, 10 min stimulation
Format: cell-based
Bridge positions count the residues as written; N and C are the ends.
quantity_measured: EC50 (nM)
Write down the numeric answer in nM and omit the unit.

Q: Which measured EC50 value corresponds to H-RALLTAPRSLRRSSCFGHKIDRINHVSNLGCNSFRYRITAREDKQGWA-OH (disulfide 15-31) [CRRL 191] ?
A: 0.48
